These measurements were taken from ChEMBL document CHEMBL3885861.

# Organism: Rattus norvegicus
# protocol.details: Open TG-GATES - Regimen: Daily Repeat
# Assay type: toxicity, organism-based, Sprague-Dawley
# Set-up: regimen Daily Repeat, gender Male, age 6 weeks
# condition.context: in vivo, po, 0 mg/kg, 72 h, tissue Plasma, route gavage, dose level Control, time 3 day
property.label: TBIL

| chemical.string | property.label | value |
| --- | --- | --- |
| C[C@]12CCC(=O)C=C1CC[C@@H]1[C@@H]2CC[C@@]2(C)[C@H]1CC[C@]2(C)O | TBIL | 0.028 mg/dL |
| CCSCC[C@H](N)C(=O)O | TBIL | 0.1 mg/dL |
| CN1C(=O)OC(C)(C)C1=O | TBIL | 0.05 mg/dL |
| Oc1ncnc2[nH]ncc12 | TBIL | 0.2 mg/dL |
| CC(C)(S)[C@@H](N)C(=O)O | TBIL | 0.018 mg/dL |
| CCC(C)(C)C(=O)O[C@H]1C[C@@H](C)C=C2C=C[C@H](C)[C@H](CC[C@@H]3C[C@@H](O)CC(=O)O3)[C@H]21 | TBIL | 0.3 mg/dL |

* * *

# Species: Rattus norvegicus
# protocol.details: Open TG-GATES - Regimen: Daily Repeat
# Type: toxicity, organism-based, Sprague-Dawley
# Parameters: regimen Daily Repeat, gender Male, age 6 weeks
# condition.context: in vivo, po, 0 mg/kg, […], tissue Plasma, route gavage, dose level Control, time 28 day
Listed here: items and their measured K.

| molecule | K (meq/L) |
| --- | --- |
| CC(=O)Oc1cc(C(C)C)c(OCCN(C)C)cc1C | 4.1 |
| Nc1nc(N)c2nc(-c3ccccc3)c(N)nc2n1 | 3.8 |
| C[C@]12CCC(=O)C=C1CC[C@@H]1[C@@H]2CC[C@@]2(C)[C@H]1CC[C@]2(C)O | 3.9 |
| CC(=N)S [THIOACETAMIDE] | 4.5 |
| O=C(O)c1cccnc1 | 4.2 |
| C[C@](N)(Cc1ccc(O)c(O)c1)C(=O)O | 3.9 |
| CC(C)(S)[C@@H](N)C(=O)O | 3.6 |

* * *

Listed here: items and their measured Ht.
# Organism: Rattus norvegicus
# protocol.details: Open TG-GATES - Regimen: Daily Repeat
# Assay type: toxicity, organism-based, Sprague-Dawley
# Design: regimen Daily Repeat, gender Male, age 6 weeks
# condition.context: in vivo, po, 100 mg/kg, […], tissue Blood, route gavage, dose level Low, time 7 day
property.label: Ht (%)

| molecule | property.label | value |
| --- | --- | --- |
| CCN1CCCC1CNC(=O)c1cc(S(N)(=O)=O)ccc1OC (centres undefined) [SULPIRIDE] | Ht | 42.1 |
| O=C(O)c1cccnc1 [NIACIN] | Ht | 39.5 |
| O=C(N[C@H](CO)[C@H](O)c1ccc([N+](=O)[O-])cc1)C(Cl)Cl [CHLORAMPHENICOL] | Ht | 44.4 |
| CC(C)(S)[C@@H](N)C(=O)O [PENICILLAMINE] | Ht | 42.4 |

* * *

# Species on record: Rattus norvegicus
# protocol.details: Open TG-GATES - Regimen: Single
# Type: toxicity, organism-based, Sprague-Dawley
# Parameters: regimen Single, gender Male, age 6 weeks
# condition.context: in vivo, po, 0 mg/kg, 24 h, tissue Plasma, route gavage, dose level Control
property.label: CRE

| compound | property.label | value |
| --- | --- | --- |
| C#C[C@]1(O)CC[C@H]2[C@@H]3CCc4cc(O)ccc4[C@H]3CC[C@@]21C [ETHINYL ESTRADIOL] | CRE | 0.2 mg/dL |
| CC(=O)Oc1cc(C(C)C)c(OCCN(C)C)cc1C [MOXISYLYTE] | CRE | 0.2 mg/dL |
| Oc1ncnc2[nH]ncc12 [ALLOPURINOL] | CRE | 0.5 mg/dL |
| CCC(C)(C)C(=O)O[C@H]1C[C@@H](C)C=C2C=C[C@H](C)[C@H](CC[C@@H]3C[C@@H](O)CC(=O)O3)[C@H]21 [SIMVASTATIN] | CRE | 0.6 mg/dL |
| CCN1CCCC1CNC(=O)c1cc(S(N)(=O)=O)ccc1OC (stereo unspecified) [SULPIRIDE] | CRE | 0.2 mg/dL |
| CCc1oc2ccccc2c1C(=O)c1cc(I)c(O)c(I)c1 [BENZIODARONE] | CRE | 0.5 mg/dL |
| C[C@](N)(Cc1ccc(O)c(O)c1)C(=O)O [METHYLDOPA] | CRE | 0.2 mg/dL |
| C[C@]12CCC(=O)C=C1CC[C@@H]1[C@@H]2CC[C@@]2(C)[C@H]1CC[C@]2(C)O [METHYLTESTOSTERONE] | CRE | 0.2 mg/dL |
| CN1C(=O)OC(C)(C)C1=O [TRIMETHADIONE] | CRE | 0.2 mg/dL |
| Nc1nc(N)c2nc(-c3ccccc3)c(N)nc2n1 | CRE | 0.2 mg/dL |
| CC(=N)S [THIOACETAMIDE] | CRE | 0.5 mg/dL |
| CC(C)(S)[C@@H](N)C(=O)O [PENICILLAMINE] | CRE | 0.2 mg/dL |
| O=C(O)c1cccnc1 [NIACIN] | CRE | 0.2 mg/dL |
| CCSCC[C@H](N)C(=O)O [ETHIONINE] | CRE | 0.4 mg/dL |
| CC(C)C(=O)Nc1ccc([N+](=O)[O-])c(C(F)(F)F)c1 [FLUTAMIDE] | CRE | 0.4 mg/dL |
| O=C(N[C@H](CO)[C@H](O)c1ccc([N+](=O)[O-])cc1)C(Cl)Cl [CHLORAMPHENICOL] | CRE | 0.2 mg/dL |
